target: T1, recombinant biotinylated CD71 extracellular domain (Sino Biologics) with an N-terminal 6His tag (human, UniProt P02786 89-760, biotinylated (sites not given)); test: screening ELISA
T1 construct: extracellular domain; also called hCD71; huCD71
T1 sequence (P02786 other isoform, or with tags, fused parts or gaps): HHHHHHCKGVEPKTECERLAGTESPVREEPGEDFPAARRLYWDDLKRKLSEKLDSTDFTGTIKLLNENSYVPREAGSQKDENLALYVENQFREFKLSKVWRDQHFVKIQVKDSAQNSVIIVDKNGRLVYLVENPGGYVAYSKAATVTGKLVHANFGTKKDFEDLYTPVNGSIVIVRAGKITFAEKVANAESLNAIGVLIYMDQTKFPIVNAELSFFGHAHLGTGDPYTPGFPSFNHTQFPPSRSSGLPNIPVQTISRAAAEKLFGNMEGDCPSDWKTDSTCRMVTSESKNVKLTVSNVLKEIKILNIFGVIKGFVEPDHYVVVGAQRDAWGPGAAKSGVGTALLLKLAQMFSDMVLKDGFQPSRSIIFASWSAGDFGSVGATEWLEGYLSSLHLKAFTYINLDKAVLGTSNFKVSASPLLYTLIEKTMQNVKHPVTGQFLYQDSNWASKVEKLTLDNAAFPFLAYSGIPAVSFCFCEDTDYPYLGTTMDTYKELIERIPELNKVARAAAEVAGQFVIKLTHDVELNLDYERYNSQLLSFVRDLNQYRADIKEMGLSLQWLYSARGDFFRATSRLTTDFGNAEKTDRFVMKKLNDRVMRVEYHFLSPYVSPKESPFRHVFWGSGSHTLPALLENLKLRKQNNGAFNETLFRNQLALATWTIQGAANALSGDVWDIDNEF
Below: a set of entries, each annotated with reported hCD71.
measured.parameter: hCD71

SEQ ID NO 204 (designed binder, FN3 domain) MLPAPKNLVVSRVTEDSARLPWTAPDAAFDSFWISYYESVGYGEAIVLTVPGSERSYDLTGLKPGTEYYVDISGVKGGVYSLPLSAIFTT = 2.77e+06
SEQ ID NO 276 (designed binder, FN3 domain) MLPAPKNLVVSRVTEDSARLSWTAPDAAFDSFRIDYLELTSLGEAIVLTVPGSERSYDLTGLKPGTEYPVPILGVKGGLSSWPLSAIFTT = 720000
SEQ ID NO 182 (designed binder, FN3 domain) MLPAPKNLVVSRVTEDSARLSWTAPDAAFDSFFIGYLEPYPPGEAIVLTVPGSERSYDLTGLKPGTEYVVSIQGVKGGTPSQPLSAIFTT = 3.12e+06
